Reference source for all entries: ChEMBL document CHEMBL3112454

Biological target: Bile acid receptor (Homo sapiens, UniProt Q96RI1)
Sequence (Q96RI1 whole entry): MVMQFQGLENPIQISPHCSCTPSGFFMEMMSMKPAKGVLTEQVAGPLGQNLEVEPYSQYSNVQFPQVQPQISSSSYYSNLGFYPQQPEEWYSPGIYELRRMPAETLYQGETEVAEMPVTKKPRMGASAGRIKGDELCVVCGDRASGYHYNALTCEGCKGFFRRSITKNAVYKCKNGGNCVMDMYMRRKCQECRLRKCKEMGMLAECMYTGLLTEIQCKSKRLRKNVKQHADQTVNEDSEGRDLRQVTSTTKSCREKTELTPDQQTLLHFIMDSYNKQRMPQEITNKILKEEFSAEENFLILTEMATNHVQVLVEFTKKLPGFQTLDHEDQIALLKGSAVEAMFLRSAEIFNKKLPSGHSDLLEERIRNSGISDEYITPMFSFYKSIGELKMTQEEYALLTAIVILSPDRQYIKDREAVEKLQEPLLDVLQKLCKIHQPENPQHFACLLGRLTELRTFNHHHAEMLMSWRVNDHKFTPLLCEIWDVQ
Test: Antagonist activity at GST-tagged FXRalpha LBD (unknown origin) assessed as inhibition of CDCA-induced bio-SRC-1 recruitment after 30 mins by fluorescence based HTRF assay
Endpoint label: pIC50
pIC50 is a log-scale quantity: -log10 of the concentration expressed in molar.

(Q) Endpoint output: pIC50 of CCc1cc(CC)c(OCc2ccccc2)cc1OCCCCCC(C)(C)c1nnn[nH]1 . Value?
(A) 5.46

(Q) For the molecule CCCc1cc(C(C)=O)c(O)cc1OCCCCCC(C)(C)c1nnn[nH]1 , what pIC50 is on record?
(A) 4.60

(Q) Which pIC50 is listed for CCc1cc(C(C)=O)c(O)cc1OCCCCCC(C)(C)c1nn[nH]n1 ?
(A) 4.45

(Q) Need pIC50, item CCc1cc(CC)c(OCCCCCC(C)(C)c2nn[nH]n2)cc1O
(A) 5.51

(Q) Data request, read-out pIC50, for CCCCC(=O)c1cc(CC)c(OCCCCCC(C)(C)c2nnn[nH]2)cc1O
(A) 5.27

(Q) For the molecule CCc1cc(C(C)=O)c(OC2CCCC2)cc1OCCCCCC(C)(C)c1nnn[nH]1 , what pIC50 is on record?
(A) 5.48

(Q) # get_value(readout='pIC50', item= CCCCc1cc(C(C)=O)c(OCc2ccccc2)cc1OCCCCCC(C)(C)c1nnn[nH]1 )
(A) 5.11

(Q) I would be grateful if you could share the reported pIC50 for CCc1cc(C(C)=O)c(OC)cc1OCCCCCC(C)(C)c1nnn[nH]1 .
(A) 5.26

(Q) Query: pIC50; subject: CCc1cc(C(C)=O)c(OCc2ccccc2)cc1OCCCCCC(C)(C)c1nnn[nH]1
(A) 5.96

(Q) Name the recorded pIC50 for CCCCc1cc(CC)c(O)cc1OCCCCCC(C)(C)c1nnn[nH]1 .
(A) 5.06

(Q) I am curious: what pIC50 value has been reported for CCc1cc(C(C)=O)c(OCc2cccc(C)c2)cc1OCCCCCC(C)(C)c1nnn[nH]1 ?
(A) 5.92
